Data provenance is patent US20080058263A1.

# assayed.system: T1, VEGFR-2-Fc (UniProt P35968 20-322)
# T1 construct: domain: first 3 Ig domains; conditioned supernatant of 293T cells; also called VEGFR-2-Fc fusion protein; not shown: Fc fragment of the pIg vector
# T1 sequence (P35968 20-322): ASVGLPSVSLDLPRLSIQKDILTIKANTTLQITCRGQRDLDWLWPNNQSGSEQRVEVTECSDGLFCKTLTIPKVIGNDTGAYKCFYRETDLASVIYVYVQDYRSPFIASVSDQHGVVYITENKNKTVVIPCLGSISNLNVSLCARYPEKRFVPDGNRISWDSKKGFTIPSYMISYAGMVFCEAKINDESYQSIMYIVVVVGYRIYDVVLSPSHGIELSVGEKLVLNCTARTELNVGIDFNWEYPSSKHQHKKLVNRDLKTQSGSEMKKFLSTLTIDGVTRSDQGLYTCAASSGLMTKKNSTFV
# assay.text: receptor-Fc IP
# Source text: The binding assay procedure was identical to the immunoprecipitation using pentahistidine antibody described in Example 2, apart from the composition of the immunoprecipitation (IP) mixes. […]
measured.parameter: binding result

Sample answers from the record:
binder | binding result
34-11 (ligand) GQNHHEVVKSIDNEWRKTQCMPIETLVDIFQEFGVATNTFFKPSCVPLMRCGGCCNSEGLQCVPTEESNITMQIMRITVPLSQGPKPVTISFLQHNKCECRPKKD | no binding
71-1 (ligand) GQNHHEVVKSIDNEWRKTQCMPREVCIDVGKEYPDEIEYIFKPSCVPLMRCGGCCNDEGLECVPTEESNITMQIMRIKPHQGQHIGEMSFLQHNKCECRPKKD | no binding
21-15 (ligand) AHYNTEILKSIDNEWRKTQCMPREVCIDVGKEYPDEIEYIFKPSCVPLMRCGGCCNSEGLQCVPTEESNITMQIMRITVPLSQGPKPVTISFANHTSCRCMSKLD | no binding
11-5 (ligand) GQNHHEVVKFMDVYQRSYCHPIETLVDIFQEYPDEIEYIFKPSCVPLMRCGGCCNDEGLECVPTEESNITMQIMRIKPHQGQHIGEMSFANHTSCRCMSKLD | binds
41-15 (ligand) AHYNTEILKFMDVYQRSYCHPREVCIDVGKEYPDEIEYIFKPSCVPLMRCGGCCNSEGLQCVPTEESNITMQIMRITVPLSQGPKPVTISFANHTSCRCMSKLD | no binding
24-13 (ligand) AHYNTEILKSIDNEWRKTQCMPREVCIDVGKEFGVATNTFFKPSCVPLMRCGGCCNDEGLECVPTEESNITMQIMRITVPLSQGPKPVTISFANHTSCRCMSKLD | no binding

Form: binder = 21-5 (ligand) AHYNTEILKSIDNEWRKTQCMPREVCIDVGKEYPDEIEYIFKPSCVPLMRCGGCCNDEGLECVPTEESNITMQIMRIKPHQGQHIGEMSFANHTSCRCMSKLD ; binding result = no binding

Form: binder = 21-4 (ligand) AHYNTEILKSIDNEWRKTQCMPREVCIDVGKEYPDEIEYIFKPSCVPLMRCGGCCNSEGLQCMNTSTSYLSKTLFEIKPHQGQHIGEMSFLQHNKCECRPKKD ; binding result = no binding

Form: binder = 23-2 (ligand) AHYNTEILKSIDNEWRKTQCMPREVCIDVGKEYPDEIEYIFKPPCVSVYRCGGCCNDEGLECMNTSTSYLSKTLFEIKPHQGQHIGEMSFLQHNKCECRPKKD ; binding result = no binding

Form: binder = 23-14 (ligand) AHYNTEILKSIDNEWRKTQCMPREVCIDVGKEYPDEIEYIFKPPCVSVYRCGGCCNDEGLECMNTSTSYLSKTLFEITVPLSQGPKPVTISFANHTSCRCMSKLD ; binding result = binds

Form: binder = 72-14 (ligand) GQNHHEVVKSIDNEWRKTQCMPREVCIDVGKEFGVATNTFFKPPCVSVYRCGGCCNDEGLECMNTSTSYLSKTLFEITVPLSQGPKPVTISFANHTSCRCMSKLD ; binding result = binds

Form: binder = 21-1 (ligand) AHYNTEILKSIDNEWRKTQCMPREVCIDVGKEYPDEIEYIFKPSCVPLMRCGGCCNDEGLECVPTEESNITMQIMRIKPHQGQHIGEMSFLQHNKCECRPKKD ; binding result = no binding

Form: binder = 71-7 (ligand) GQNHHEVVKSIDNEWRKTQCMPREVCIDVGKEYPDEIEYIFKPSCVPLMRCGGCCNSEGLQCVPTEESNITMQIMRIKPHQGQHIGEMSFANHTSCRCMSKLD ; binding result = no binding

Form: binder = 13-8 (ligand) GQNHHEVVKFMDVYQRSYCHPIETLVDIFQEYPDEIEYIFKPPCVSVYRCGGCCNSEGLQCMNTSTSYLSKTLFEIKPHQGQHIGEMSFANHTSCRCMSKLD ; binding result = no binding

Form: binder = 23-16 (ligand) AHYNTEILKSIDNEWRKTQCMPREVCIDVGKEYPDEIEYIFKPPCVSVYRCGGCCNSEGLQCMNTSTSYLSKTLFEITVPLSQGPKPVTISFANHTSCRCMSKLD ; binding result = no binding

Form: binder = 61-11 (ligand) GQNHHEVVKFMDVYQRSYCHPREVCIDVGKEYPDEIEYIFKPSCVPLMRCGGCCNSEGLQCVPTEESNITMQIMRITVPLSQGPKPVTISFLQHNKCECRPKKD ; binding result = no binding
